Assay: chemical genetic growth profiling, strain panel (AID 1159580);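 also: tested at 20 µM; growth read once vehicle control cultures reached saturation at 30 °C; 1 = growth at the plate median or of vehicle wells; lower values mean less growth of the strain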
Settings: S. cerevisiae deletion strains, growth OD, locus YCL029C, strain bik1, active compounds read low
The campaign covered roughly 5,500 compounds. About 2,000 (36%) were called active. Not shown: some 18% with an inconclusive outcome. The list shows a part of the results.

COMPOUND	normalized growth
CCc1ccc(CCOc2ccc(CC3SC(=O)NC3=O)cc2)nc1 (stereo unspecified)	0.996
NC(=O)c1ncn([C@@H]2O[C@H](CO)[C@@H](O)[C@H]2O)c1O	1.01
OC(CCN1CCCCC1)(c1ccccc1)c1ccccc1	1.01
N#Cc1c(Cl)c(Cl)c(Cl)c(C#N)c1Cl	0.976
NC[C@@H]1O[C@H](O[C@@H]2[C@@H](CO)OC(O[C@@H]3[C@@H](O)[C@H](N)C[C@H](N)[C@H]3OC3O[C@H](CN)[C@@H](O)[C@H](O)[C@H]3N)[C@@H]2O)[C@H](N)[C@@H](O)[C@@H]1O (stereo partly specified)	1.02
CO[C@H]1C[C@H](O[C@H]2[C@H](C)[C@@H](OC3O[C@H](C)C[C@H](N(C)C)[C@H]3O)[C@@H](C)C[C@]3(CO3)C(=O)[C@H](C)[C@@H](O)[C@@H](C)[C@@H](C)OC(=O)[C@@H]2C)O[C@@H](C)[C@@H]1O (stereo partly specified)	1
COc1ccc2c(c1)OC[C@@H](Cc1ccc(OC)c(OC)c1)[C@@H]2O	0.988
COc1cc(OC)c2c(c1)O[C@H](c1ccc(OC)c(OC)c1)[C@@H](O)C2	1.02
C=CC(C)(C)c1c2c(c(O)c3c(=O)c4ccc(O)c(O)c4oc13)C=CC(C)(C)O2	0.992
CCc1cccc(C)c1N(C(=O)CCl)C(C)COC (stereo unspecified)	1.02
Cc1ccc2c(c1)CC[C@H]1CC(=O)CC[C@]21C	0.991
NC/C=C/C(=O)O	1.02
CC(=C(CCOP(=O)(O)O)SC(=O)c1ccccc1)N(C=O)Cc1cnc(C)nc1N	1
NC(N)=Nc1nc(CSCCC(N)=NS(N)(=O)=O)cs1	1.02
COc1ccc2c(c1)C1(C)CCC(=O)CC1CC2 (stereo unspecified)	0.986
COc1ccc([C@@H]2CC(=O)c3c(O)cc(O)cc3O2)cc1O	1.02
C=CCc1ccc2c(c1)OCO2	0.99
Cc1ccc(C(=O)C(C)CN2CCCCC2)cc1 (stereo unspecified)	1.02
COc1c(CC=C(C)C)c2c(c3oc(=O)c(-c4ccc(OC(C)=O)cc4)c(OC(C)=O)c13)C=CC(C)(C)O2	1.02
NC(N)=NOCC[C@H](N)C(=O)O	0.983
COC(=O)[C@H]1[C@H]2C[C@H]3c4[nH]c5ccccc5c4CCN3C[C@H]2CC[C@@H]1O	1
CNc1ccccc1C(=O)N1CCc2c([nH]c3ccccc23)C1=O	0.996
O=C1CC(c2ccccc2)Oc2ccccc21 (stereo unspecified)	0.971
COC(=O)COc1ccc(Cl)cc1Cl	1.02
COc1ccc(CC2c3cc(OC)c(OC)cc3CCN2C)cc1OC (stereo unspecified)	0.988
COc1cc2c(cc1OC)C(=O)C(CC1CCN(Cc3ccccc3)CC1)C2 (stereo unspecified)	0.989

The values you see were collected from PubChem BioAssay AID1159580.
